endpoint.label: melting point

For the compound "CCCCNc1cncc(C(=NCCc2ccccc2Cl)NC#N)c1" , give its measured melting point value. 122 °C

For the compound c1cc2nnnn2cc1C1CO1 (centres undefined) , give its measured melting point value. 108 to 110 °C

For the compound "CCN(CC)C(=O)c1cc(OC)cc(OC)c1-c1ccccc1" , give its measured melting point value. 117 to 118 °C

For the compound COc1cc(C)c(C(O)c2c(Cl)cnc(Cl)c2C(F)(F)F)c(OC)c1OC (centres undefined) , give its measured melting point value. 162 to 165 °C

For the compound "O=C(Nc1ccc(C(F)(F)F)cc1)c1cccc(Oc2cccc(C(F)(F)F)c2)n1" , give its measured melting point value. 130 to 132 °C

For the compound "CCSC(C)(C)C(=O)CC(=O)Nc1cc([N+](=O)[O-])ccc1OC" , give its measured melting point value. 138 to 140 °C

For the compound "CNC(=O)c1c(NC(=O)c2cc(C(F)(F)F)nn2-c2ncccc2Cl)ccc2cccnc12" , give its measured melting point value. 219 to 220 °C

For the compound "COC(=O)c1cnco1" , give its measured melting point value. 35 to 50 °C

For the compound CN(C(=O)c1ccc2nonc2c1)C1CCCCC1=O (centres undefined) , give its measured melting point value. 144 to 145 °C
